Reference for the values: ChEMBL document CHEMBL3351391

assay: Cytotoxicity against human HuH7 cells after 48 hrs by WST8 assay; format: functional, cell-based; details: Huh-7, 48 h
ENDPOINT NAME: IC50 (µM)
One number for each entry, in µM.

STRUCTURE STRING	ENDPOINT NAME	RESULT
COc1cccc2c1C(=O)c1c(O)c3c(c(O)c1C2=O)C[C@@](O)(C(=O)CO)C[C@@H]3O[C@H]1C[C@H](N)[C@H](O)[C@H](C)O1	IC50	0.22
CC(=O)Cc1c(C)c(O)c2c(c1O)C(=O)CCC2=O	IC50	1.9
COc1cc(O)c2c(c1O)[C@H](O)[C@@H]1C[C@](C)(O)OC[C@@H]1C2=O	IC50	27
COC1=CC(=O)c2c(O)c(C)c(CC(C)=O)c(O)c2C1=O	IC50	6.7

get_value(item= "COc1cc(O)c2c(c1O)C(=O)[C@@H](CC(C)=O)[C@H](C)C2=O" , readout=IC50) returns 10.8
